Test: Human HepG2 cell viability assay in 384 well format
Format: toxicity, cell-based
Set-up: dose 125 nL, time 70.5 hour; concentration not given beside the values
Conditions: HepG2 cells, read-out: Inhibition
Provide the recorded cytotoxicity at 70.5 h for the entries that follow.
One number for each entry, in %.

- NC(=O)C1CCN(C(=O)c2ccc(Sc3ccccn3)cc2)CC1: -2.31
- O=C(CCNc1ncccn1)Nc1cc(C(F)(F)F)c[nH]c1=O: -6.4
- Cc1cc(F)c2c(c1)CCCN2Cc1cc(=O)n(C)c(=O)n1C: -8.84
- CN(C)CC1CN(Cc2csc(C3CCCC3)n2)CCO1 (centres undefined): -12.3
- Cc1c(Cl)c(C(F)(F)F)nn1C(C)C(=O)NC1CCN(C)CC1 (centres undefined): 7.5

Batch request: cytotoxicity at 70.5 h for each of the following compounds.
1. NC1CCN(C(=O)c2cnc(Cc3c(Cl)cccc3Cl)nc2O)C1 (centres undefined)
2. Cc1nc(C)n(CC2CCCN2CCOc2cccc(F)c2)n1 (centres undefined)
3. CN(C)CCN(CC1CCCO1)C(=O)Cc1cn2ccccc2n1 (centres undefined)
4. CC(C)Cn1nc2ccc(S(=O)(=O)N3CCC(C)CC3)cn2c1=O
5. CC(C)C(=O)Nc1ccc(Oc2ccc3c(c2)OCO3)nc1
6. Cc1ccn(CCNc2ncnc3c2CCN(Cc2ncc[nH]2)CC3)n1

OUTPUT:
13.3
-9.85
17.3
-10.3
-10.1
-8.65

Hi team, please reply with cytotoxicity at 70.5 h for each item in this list.
1. CC(C)CN(Cc1ccc(-n2cncn2)cc1)Cc1ccccn1
2. CN1CCc2[nH]cnc2C12CCN(C(=O)CCc1cccs1)CC2
3. COc1cccc(C(=O)N2C[C@@H](c3ccccc3)[C@@H]3NCCCC[C@@H]32)c1
4. CN(C)CCn1c2c(ccc1=O)CCN(C(=O)c1cccs1)CC2
5. CCC(C)NC(=O)c1ccc(NC(=O)CCc2ccncc2)c(C)c1 (centres undefined)
6. COCC(NC(=O)c1cc(NC(C)=O)ccc1Cl)c1ccccn1 (centres undefined)
7. Cc1nn(CCO)c(C)c1CNC1CCc2c(Cl)cccc21 (centres undefined)
8. COc1cc(NC2CCCN(c3ncccn3)C2)cc(OC)c1 (centres undefined)

OUTPUT:
1. -10.8
2. 16.8
3. -8.79
4. -5.63
5. -3.96
6. -5.35
7. 10.2
8. 3.49

Go through the list and state cytotoxicity at 70.5 h for each entry.
1. O=c1[nH]c2cc3c(cc2cc1CN1CCCC1c1ccccn1)CCC3 (centres undefined)
2. CCN1CCc2c(cccc2NC(=O)N(C)C2CCSC2)C1 (centres undefined)
3. COc1ccc(-c2cc(C3CCNCC3)nc(C)n2)cc1
4. CNC(=O)[C@@H]1C[C@@H](N)CN1c1nnc(-c2ccccc2)s1
5. COCCC(=O)N1Cc2cnc(Cc3ccc(OC)cc3)nc2C1

OUTPUT:
1: 9.53; 2: -10.8; 3: -6.57; 4: -4.95; 5: -1.53
